For each record, write down the corresponding apparent Kd.
Tested on: MS2 coat protein
Assay: apparent Kd, MS2 coat protein; higher = weaker binding; RNA-MaP array; FMN 200 µM where present
Conditions: designed as: OFF switch for flavin mononucleotide; no ligand
The response must be a number in nM with no trailing unit.

The measured apparent Kd that CCAAACGGAGGAUAUACAAAUUAAGGAAAAAAACGCGAAAAACAUGAGGAUCACCCAUGUAGAAGGCCGAAAAA showed for MS2 coat protein is 19.3

apparent Kd value, target or system MS2 coat protein, for UCAUUGAUUGUGAGGAUAUCGAUGUGAUGGUUUGUCGAGAAGGCACAUGAGGAUCACCCAUGUUUGUUUGGGCU : 494

# value of apparent Kd, MS2 coat protein, item AGCUGUGGCCGAGGAUAUCUACUAAUCCAAACCGAAAUAUAAUCGGACAUGAGGAUCACCCAUGUAGAGAAGGCGGUCUCAGCA = 254

// assay MS2 coat protein, entry GUGGAGUAAGGAUAUACAUGAGGAUCACCCAUGUGAGGGUAUGUGAUGGGAGUAGGUUGUAGAAGGUACGAGGA , apparent Kd value = 287

Here ACGCUUUGGGAGAAGGUACGUUAAUUUUUUUCCACAUGAGGAUCACCCAUGUAAGGAUAUCCCGUCGUUAAAUAGGCUACAGCA was tested on MS2 coat protein, and its apparent Kd came to 9.59

The recorded apparent Kd with MS2 coat protein for GGUGCGUAUGUGAGGAUAUGCUGGUCCUUGGGUCGGCAGAAGGCACAUGAGGAUCACCCAUGUGGUGUCGUUCC was 86.2

GET /values?item= GCACUGACAGGAUAUACAUGAGGAUCACCCAUGUGACCCUUAUAGUACUCGCGUACUGGUAGAAGGGUCUGUGC &system= MS2 coat protein returns apparent Kd: 78.8

====

System: MS2 coat protein
Experiment: apparent Kd, MS2 coat protein; higher = weaker binding; RNA-MaP array; FMN 200 µM where present
Conditions: ligand present: flavin mononucleotide; designed as: ON switch for flavin mononucleotide
Consider the following sequences; for each one, report its apparent Kd.
Give just the numeric value; µM need not be written.

What the record says about AUUUAGUGCGAGAAGGCGUGGUCACAUGAGGAUCACCCAUGUCAGUACACGAGGAUAUCGAUUCACUGUAUAAACACAAGUGAC : apparent Kd is 0.00622

Field apparent Kd (entry GUAGCAUGCCAAGGAUAUUCAUAUAGUAGGCAAACAUGAGGAUCACCCAUGUAAUGAGAGCACUGGGAGAAGGUGGGAUGCUAC ) reads 0.0214

Noted for UGCCUGAGUCGAGGAUAUUAUGGAUCCUCUAAUACAUGAGGAUCACCCAUGUAAUUAAUUAUACAUGAGAAGGUGACUCAGGCU : its apparent Kd reads 0.488

Reported apparent Kd for GGGUACAUCGGAGGAUAUCAUGUAAAUACAUGAGGAUCACCCAUGUCGAUGGAGACAUCGGAGAUUGAGAAGGCCAAUGUACCG was 0.00876

====

Test system: MS2 coat protein
Experiment: apparent Kd, MS2 coat protein; higher = weaker binding; RNA-MaP array; FMN 200 µM where present
Details: ligand present: flavin mononucleotide; designed as: ON switch for flavin mononucleotide
property: apparent Kd (nM)
Entry rule: numbers only, all in nM.

// recorded apparent Kd for AGGGUAUGAACAUGAGGAUCACCCAUGUAAACGGAAACGAAUGAGGAUAUCGAUAGCAAAGCUAUCGAGAAGGCAUGGGACCCU : 49.1

Value of measured apparent Kd for the entry AAAAUCUAUAGAGGAUAUCCAUACACUGCAUACGGAGAAGGCUAACAAUCAUGAGGACAUGAGGAUCACCCAUGUUGUGACCAU : 13.6

Recorded apparent Kd (sequence AAAAGACAUGAGGAUCACCCAUGUAAAAACAUAGGAGGAUAUGUUUGGAAACUAGACUGAACAGAAGGCCUUUGUC ): 17

The recorded apparent Kd for GCGUUCUUGUAGAAGGUACAUAAAAUCUAUUUUUAACACAUGAAACAUGAGGAUCACCCAUGUUGUAAGGAUAUACAUGAACGC is 5.88

Entry UUGGUACAUGAGGAUCACCCAUGUGGGUCGGUCGCAGGAUAUGCCCGUGGGCGCUUGCGGGCAGAAGGGUGCCGUA — recorded apparent Kd = 102

The measured apparent Kd associated with GUGGGUGAUGGAGGAUAUGACGACGGGUUUUACAUGAGGAUCACCCAUGUGGCGUUCCGCAAAAGUCAGAAGGCCAGGUAUACU reads 40.6

Documented apparent Kd of AUUUUACAUGAGGAUCACCCAUGUUUUGGCGGGUCAGGAUAUAGAUCGGAUGAGUUCUGUCUAGAAGGGACAUGUA : 71.6

Reported apparent Kd of ACAUGAGGAUCACCCAUGUUCACAUAGGAUAUUGAUUAUAUUGGUUUAAGAAUAGUAAUUGACCACAAGAAGGAUGCCUGAUCU : 9.7

Entry under test: AAAACAUGAGGAUCACCCAUGUAAAGAUCGGUUAAUAAAAGUGAGGAUAUACUAAAUUUUAUAUAGUAGAAGGCACUGGGUACA . Its apparent Kd was 30.1

apparent Kd for GGACGUCACAUCUACAUGAGGAUCACCCAUGUCAAAAGACAUGAGGAUAUGCUUCCUAAUUGGAAGCAGAAGGCAUGGACGUCC is 67.5

The sequence GGAUCCAACACAGGAUAUGCUGGACUUUGUCCAGCAGAAGGGUGAAGAACAUGAGGAUCACCCAUGUGGAUCCAUAUAUUUUAU showed apparent Kd equal to 16.5

====

Test system: MS2 coat protein
Assay: apparent Kd, MS2 coat protein; higher = weaker binding; RNA-MaP array; FMN 200 µM where present
Settings: ligand present: flavin mononucleotide; designed as: ON switch for flavin mononucleotide
// False strictly below 60 nM in apparent Kd; True otherwise

-- ask Hi, just wondering whether UGGUACUAGGGAGGAUAUGGGAAGAUACAUGAGGAUCACCCAUGUUUACGAAUGCCGAGAGGCAACUAGAAGGCCCUAGUACCU shows apparent Kd of 60 nM or higher.
-- reply False

-- ask State whether the measured apparent Kd reaches 60 nM, counting equality as reaching it, for UUCGAGCCAAGGCUCGCGAGUACACAGGAUAUGAAAAGUCACAUGAGGAUCACCCAUGUCCAAAAUCAGAAGGGUGAGACUAAG
-- reply True

-- ask Given the entry UUGCCUCAGAACAUGAGGAUCACCCAUGUGCUGCGGGCAACGUAGGAUAUGAUGGUGCAACACCAUCAGAAGGAUGAUGGUACC , answer whether its apparent Kd meets or surpasses 60 nM.
-- reply False

-- ask Tell me whether apparent Kd is at least 60 nM here: GGAGCUCAGAUUAACAUGAGGAUCACCCAUGUCUUUUGACAUGAGGAUAUGGAUCCUAAUUGGAUCCAGAAGGCAUGGAGCUCC
-- reply True

-- ask // inclusive: apparent Kd at least 60 nM? input: GCAACGCCUGACAUGAGGAUCACCCAUGUUAGAUUGUUAUGUCAGGAUAUAGUCUAGAAACUAGACUAGAAGGGAUAUGUUGCU
-- reply True

-- ask Say whether GGACGUCAGAUUAACAUGAGGAUCACCCAUGUCUUUUGACAUGAGGAUAUGCAACCUAAUUGGUUGCAGAAGGCAUGGACGUCC shows apparent Kd of 60 nM or more.
-- reply True

-- ask Is apparent Kd at least 60 nM? Consider GGACAUUUACAGAAGGGCAAGUUAGAUAGUGAAUAUUUAGAUCUGACUUGCAGGAUAUGUUGAACAUGAGGAUCACCCAUGUCC
-- reply False

-- ask Could you verify whether the entry GCCAACUUAUGAGGAUAUGGCACCUUAUUGGUGCCAGAAGGCAUGUCAAUUGACAUGAGGAUCACCCAUGUAUUAUAGUUGGCA shows apparent Kd of no less than 60 nM?
-- reply True

-- ask apparent Kd >= 60 nM for AAACAAACAACGCAGGAUAUGCAAAAACCCACAUGAGGAUCACCCAUGUCCCAACAACAAACAAAGCAGAAGGGCGAACAAACAAA ?
-- reply False

-- ask Please tell me: is the sequence AAACGCCAACAUGAGGAUCACCCAUGUUCUAGUUUAGGGUCGCAGGAUAUGACUUCGAAGCUUAGUCAGAAGGGUGAGUCCACA at or over 60 nM in terms of apparent Kd?
-- reply False

-- ask Has GGAAGACAUGAGGAUCACCCAUGUGGGAUUAUGGGAGGAUAUACAAAGACGAGAGUCAGAGUAGAAGGCCUAGGAU a recorded apparent Kd greater than or equal to 60 nM?
-- reply False

-- ask Has GGGUACAUCGGAGGAUAUCAUGUAAAUACAUGAGGAUCACCCAUGUCGAUGGAGACAUCGGAGAUUGAGAAGGCCGAUGUAGCG a recorded apparent Kd greater than or equal to 60 nM?
-- reply False

-- ask Is apparent Kd at least 60 nM? Consider UUGAAUUGAAACAUGAGGAUCACCCAUGUGUCAUAAUUGACAUAGGAUAUGCUUAUACUUUUAAAGCAGAAGGAUGACGAUACU
-- reply False

-- ask Check this sequence for apparent Kd at or above 60 nM: GAGUGACGAUUAGGAUAUAUAGUGAUAAUGAUAAUAGAAGGAAUUGACAUGAGGAUCACCCAUGUAGGACUAAUCCAGAGAGAG
-- reply True
